- ASSAY PROCEDURE: Metabolic stability in NMRI mouse brain at 6 MBq/ml, iv after 10 mins by HPLC analysis
- Format: ADME, organism-based
- CONDITION: read-out: Stability
MEASURED METRIC: remaining at 10 min (%)
Report the figure in % without appending any unit label.

Which value of remaining at 10 min has been reported for Cc1c(CCN2CCOCC2)c2cc(OCC[18F])ccc2n1C(=O)c1cccc(Cl)c1Cl in the records?
79

---

- ASSAY PROCEDURE: Metabolic stability in NMRI mouse plasma at 6 MBq/ml, iv after 10 mins by HPLC analysis
- Format: ADME, organism-based
- CONDITION: read-out: Stability
MEASURED METRIC: remaining at 10 min (%)
Report the figure in % without appending any unit label.

Which value of remaining at 10 min has been reported for Cc1c(CCN2CCOCC2)c2cc(OCC[18F])ccc2n1C(=O)c1cccc(Cl)c1Cl in the records?
52
